- protocol_details: Toxicokinetics in 13-week topical ocular dog study
- condition_set: both sexes, Beagle, in vivo, topical or ocular, 50 mg/mL/occasion, dogs, males and females combined, 50 mg/mL/occasion 12 times a day, Week 13, read-out: AUC0-1 exposure at NOAEL
recorded_endpoint: AUC(0-t) (ng·h/mL)
The reply should contain only the number, in ng·h/mL.

Record summary for Cc1ccccc1OCC(=O)N[C@@H](CC(C)C)C(=O)N[C@@H](Cc1ccc(OC(=O)N2CCC(C(N)=O)CC2)cc1)C(=O)O [GW559090] : reported AUC(0-t) = 11.2

* * *

- protocol_details: PK study in rabbits, ocular tissue concentrations (LC-MS/MS)
- Format: in vivo, New Zealand White rabbits
- condition_set: male, New Zealand White, rabbit, cornea, topical; at 3 hours; 40 μL (50 mg/mL) GW559090A; read-out: Corneal tissue concentration
- Description: The potassium salt of GW559090, referred to herein as GW559090A, was given to male New Zealand White rabbits by topical ocular administration as a single bilateral drop (Study #1: n=2 rabbits/4 eyes per time point; Study #2: n=3 rabbits/6 eyes per time point). […] Concentrations of GW559090 were measured in cornea and bulbar conjunctiva by liquid chromatography with tandem mass spectrometry (LC-MS/MS).
recorded_endpoint: concentration at 3 h

Record summary for Cc1ccccc1OCC(=O)N[C@@H](CC(C)C)C(=O)N[C@@H](Cc1ccc(OC(=O)N2CCC(C(N)=O)CC2)cc1)C(=O)O : reported concentration at 3 h = > 1000 ng/mL
